Reference source: PubChem BioAssay AID1918953

tested on: MDA-MB-231 complex spheroid viability; test: Anticancer human tumor MDA-MB-231/ATCC cell line growth inhibition; settings: second compound 0.1 µM; first compound 0.949 µM; stronger effect = lower value;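 also: drug exposure lasted 7 days starting on day 3 of spheroid growth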
value_kind: viability, T/C (%)
Write down the numeric answer in % and omit the unit.

NS(=O)(=O)OCC1CC(n2ccc3c(NC4CCc5ccccc54)ncnc32)CC1O (stereo not given) + NC1CC1c1ccc(-c2cccc(O)c2)cc1 | 28.8
CCN(c1cc(-c2ccc(CN3CCOCC3)cc2)cc(C(=O)NCc2c(C)cc(C)[nH]c2=O)c1C)C1CCOCC1 + NC1CCC(NC2CC2c2ccccc2)CC1 | 70.1
COc1cc(C2c3cc4c(cc3C(OC3OC5COC(C)OC5C(O)C3O)C3COC(=O)C23)OCO4)cc(OC)c1O (stereo not given) + NC1CCC(NC2CC2c2ccccc2)CC1 | 15.6
COc1cc(C2c3cc4c(cc3C(OC3OC5COC(C)OC5C(O)C3O)C3COC(=O)C23)OCO4)cc(OC)c1O (stereo not given) + NC1CC1c1ccc(-c2cccc(O)c2)cc1 | 15.5
O=C(C=Cc1cccc(S(=O)(=O)Nc2ccccc2)c1)NO + NC1CCC(NC2CC2c2ccccc2)CC1 | 13.7
CCN(c1cc(-c2ccc(CN3CCOCC3)cc2)cc(C(=O)NCc2c(C)cc(C)[nH]c2=O)c1C)C1CCOCC1 + NC1CC1c1ccc(-c2cccc(O)c2)cc1 | 27.8

Let's switch to this compound now.
The compound listed as O=C(C=Cc1cccc(S(=O)(=O)Nc2ccccc2)c1)NO + NC1CC1c1ccc(-c2cccc(O)c2)cc1 has a reported viability, T/C of 1.09
